Tested on: Cryptococcus neoformans
assay_comment: Antifungal activity against Cryptococcus neoformans ATCC 32609 by microplate reader assay
Assay type: functional
assay_setup: ATTCC32609
readout_label: MIC80 (µg/mL)
I only need the number, in µg/mL, no unit after it.

Hello, please tell me recorded MIC80 for this one: C=C(C)CCC[C@]1(C)OC(=O)[C@]23CC[C@@H]4C(=CCC5C(C)(C)[C@@H](O[C@@H]6OC[C@@H](OS(=O)(=O)O)[C@H](O)[C@H]6O[C@@H]6O[C@H](C)[C@@H](O[C@@H]7OC[C@@H](O)[C@H](O[C@@H]8O[C@H](CO)[C@@H](O)[C@H](OC)[C@H]8O)[C@H]7OS(=O)(=O)O)[C@H](O)[C@H]6O)CC[C@@]54C)[C@]2(C)C[C@H](OC(C)=O)[C@@H]31.[Na+].[Na+].[Na+] (some centres not stated) 16

Entry CCC(C)n1ncn(-c2ccc(N3CCN(c4ccc(OCC5COC(Cn6cncn6)(c6ccc(Cl)cc6Cl)O5)cc4)CC3)cc2)c1=O (configuration not stated) [ITRACONAZOLE] needs its MIC80 filled in; supply it. 2

###

Test system: Candida albicans
assay_comment: Antifungal activity against Candida albicans ATCC 76615 by microplate reader assay
Type: functional
assay_setup: ATTCC76615
readout_label: MIC80
Field note: include the unit after the figure.

Supply measured MIC80 of OC(Cn1cncn1)(Cn1cncn1)c1ccc(F)cc1F [FLUCONAZOLE] in your reply. 0.25 µg/mL

###

Test system: MKN-28
assay_comment: Cytotoxicity against human MKN-28 cells assessed as reduction in cell viability by sulforhodamine B assay
Format: functional, cell-based
For each entry below, report its IC50 value.
Numeric answer only, unit nM assumed.

Consider the compound C=C(C)CCC[C@]1(C)OC(=O)[C@]23CC[C@@H]4C(=CCC5C(C)(C)[C@@H](O[C@@H]6OC[C@@H](OS(=O)(=O)[O-])[C@H](O)[C@H]6O[C@@H]6O[C@H](C)[C@@H](O[C@@H]7OC[C@@H](O)[C@H](O[C@@H]8O[C@H](CO)[C@@H](O)[C@H](OC)[C@H]8O)[C@H]7O)[C@H](O)[C@H]6O)CC[C@@]54C)[C@]2(C)CC(=O)[C@@H]31.[Na+] (some centres undefined) . State its measured IC50. 1820

Name the recorded IC50 of the compound listed here: C=C(C)CCC[C@]1(C)OC(=O)[C@]23CC[C@@H]4C(=CCC5C(C)(C)[C@@H](O[C@@H]6OC[C@@H](OS(=O)(=O)O)[C@H](O)[C@H]6O[C@@H]6O[C@H](C)[C@@H](O[C@@H]7OC[C@@H](O)[C@H](O[C@@H]8O[C@H](CO)[C@@H](O)[C@H](OC)[C@H]8O)[C@H]7OS(=O)(=O)O)[C@H](O)[C@H]6O)CC[C@@]54C)[C@]2(C)C[C@H](OC(C)=O)[C@@H]31.[Na+].[Na+].[Na+] (some centres undefined) 2030

Check the records and state IC50 for C=C(C)CCC[C@]1(C)OC(=O)[C@]23CC[C@@H]4C(=CCC5C(C)(C)[C@@H](O[C@@H]6OC[C@@H](OS(=O)(=O)[O-])[C@H](O)[C@H]6O[C@@H]6O[C@H](C)[C@@H](O[C@@H]7OC[C@@H](O)[C@H](O[C@@H]8O[C@H](CO)[C@@H](O)[C@H](OC)[C@H]8O)[C@H]7O)[C@H](O)[C@H]6O)CC[C@@]54C)[C@]2(C)C[C@H](OC(C)=O)[C@@H]31.[Na+] (some centres undefined) 1830

Could you please provide reported IC50 for CO[C@@H]1[C@@H](O)[C@H](O[C@@H]2[C@@H](O)[C@H](O[C@H]3[C@H](O)[C@@H](O)[C@H](O[C@H]4[C@H](O[C@H]5CC[C@@]6(C)C(CC=C7[C@H]6CC[C@]68C(=O)O[C@@](C)(CCC=C(C)C)[C@H]6[C@@H](OC(C)=O)C[C@@]78C)C5(C)C)OC[C@@H](OS(=O)(=O)[O-])[C@@H]4O)O[C@@H]3C)OC[C@H]2O)O[C@H](CO)[C@H]1O.[Na+] (some centres undefined) ? Thanks! 2810

###

Test system: Bel-7402
assay_comment: Cytotoxicity against human Bel-7402 cells assessed as reduction in cell viability by sulforhodamine B assay
Format: functional, cell-based
Provide the recorded pIC50 for the entries that follow.
The quantity pIC50 is defined as the negative base-10 logarithm of the molar concentration.

Consider the molecule CO[C@@H]1[C@@H](O)[C@H](O[C@@H]2[C@@H](O)[C@H](O[C@H]3[C@H](O)[C@@H](O)[C@H](O[C@H]4[C@H](O[C@H]5CC[C@@]6(C)C(CC=C7[C@H]6CC[C@]68C(=O)O[C@@](C)(CCC=C(C)C)[C@H]6[C@@H](OC(C)=O)C[C@@]78C)C5(C)C)OC[C@@H](OS(=O)(=O)[O-])[C@@H]4O)O[C@@H]3C)OC[C@H]2O)O[C@H](CO)[C@H]1O.[Na+] (some centres undefined) . State its measured pIC50. 5.62

// fetch pIC50 given entry C=C(C)CCC[C@]1(C)OC(=O)[C@]23CC[C@@H]4C(=CCC5C(C)(C)[C@@H](O[C@@H]6OC[C@@H](OS(=O)(=O)[O-])[C@H](O)[C@H]6O[C@@H]6O[C@H](C)[C@@H](O[C@@H]7OC[C@@H](O)[C@H](O[C@@H]8O[C@H](CO)[C@@H](O)[C@H](OC)[C@H]8O)[C@H]7O)[C@H](O)[C@H]6O)CC[C@@]54C)[C@]2(C)C[C@H](OC(C)=O)[C@@H]31.[Na+] (some centres undefined) 5.84

Provide one value: measured pIC50 of C=C(C)CCC[C@]1(C)OC(=O)[C@]23CC[C@@H]4C(=CCC5C(C)(C)[C@@H](O[C@@H]6OC[C@@H](OS(=O)(=O)O)[C@H](O)[C@H]6O[C@@H]6O[C@H](C)[C@@H](O[C@@H]7OC[C@@H](O)[C@H](O[C@@H]8O[C@H](CO)[C@@H](O)[C@H](OC)[C@H]8O)[C@H]7OS(=O)(=O)O)[C@H](O)[C@H]6O)CC[C@@]54C)[C@]2(C)C[C@H](OC(C)=O)[C@@H]31.[Na+].[Na+].[Na+] (some centres undefined) 5.89

Identify pIC50 associated with the molecule C=C(C)CCC[C@]1(C)OC(=O)[C@]23CC[C@@H]4C(=CCC5C(C)(C)[C@@H](O[C@@H]6OC[C@@H](OS(=O)(=O)[O-])[C@H](O)[C@H]6O[C@@H]6O[C@H](C)[C@@H](O[C@@H]7OC[C@@H](O)[C@H](O[C@@H]8O[C@H](CO)[C@@H](O)[C@H](OC)[C@H]8O)[C@H]7O)[C@H](O)[C@H]6O)CC[C@@]54C)[C@]2(C)CC(=O)[C@@H]31.[Na+] (some centres undefined) 5.89

###

Tested on: Candida albicans
assay_comment: Antifungal activity against Candida albicans ATCC 76615 by microplate reader assay
Type: functional
assay_setup: ATTCC76615
I'd be grateful if you could share measured MIC80 for these entries.
I only need the number, in µg/mL, no unit after it.

Specify reported MIC80 for the compound shown: C=C(C)CCC[C@]1(C)OC(=O)[C@]23CC[C@@H]4C(=CCC5C(C)(C)[C@@H](O[C@@H]6OC[C@@H](OS(=O)(=O)[O-])[C@H](O)[C@H]6O[C@@H]6O[C@H](C)[C@@H](O[C@@H]7OC[C@@H](O)[C@H](O[C@@H]8O[C@H](CO)[C@@H](O)[C@H](OC)[C@H]8O)[C@H]7O)[C@H](O)[C@H]6O)CC[C@@]54C)[C@]2(C)C[C@H](OC(C)=O)[C@@H]31.[Na+] (stereo partly drawn) 4

Supply reported MIC80 belonging to this compound: CN(C/C=C/C#CC(C)(C)C)Cc1cccc2ccccc12 [TERBINAFINE] 32

Supply measured MIC80 of C=C(C)CCC[C@]1(C)OC(=O)[C@]23CC[C@@H]4C(=CCC5C(C)(C)[C@@H](O[C@@H]6OC[C@@H](OS(=O)(=O)[O-])[C@H](O)[C@H]6O[C@@H]6O[C@H](C)[C@@H](O[C@@H]7OC[C@@H](O)[C@H](O[C@@H]8O[C@H](CO)[C@@H](O)[C@H](OC)[C@H]8O)[C@H]7O)[C@H](O)[C@H]6O)CC[C@@]54C)[C@]2(C)CC(=O)[C@@H]31.[Na+] (stereo partly drawn) in your reply. 25

###

Tested on: Candida albicans
assay_comment: Antifungal activity against Candida albicans ATCC 76615 by microplate reader assay
Type: functional
assay_setup: ATTCC76615
Please provide measured MIC80 for the entries that follow.
Write the value in µg/mL as a bare number.

Supply reported MIC80 belonging to this molecule: C=C(C)CCC[C@]1(C)OC(=O)[C@]23CC[C@@H]4C(=CCC5C(C)(C)[C@@H](O[C@@H]6OC[C@@H](OS(=O)(=O)O)[C@H](O)[C@H]6O[C@@H]6O[C@H](C)[C@@H](O[C@@H]7OC[C@@H](O)[C@H](O[C@@H]8O[C@H](CO)[C@@H](O)[C@H](OC)[C@H]8O)[C@H]7OS(=O)(=O)O)[C@H](O)[C@H]6O)CC[C@@]54C)[C@]2(C)C[C@H](OC(C)=O)[C@@H]31.[Na+].[Na+].[Na+] (stereo partly drawn) 4

Give the reported MIC80 for this molecule. CO[C@@H]1[C@@H](O)[C@H](O[C@@H]2[C@@H](O)[C@H](O[C@H]3[C@H](O)[C@@H](O)[C@H](O[C@H]4[C@H](O[C@H]5CC[C@@]6(C)C(CC=C7[C@H]6CC[C@]68C(=O)O[C@@](C)(CCC=C(C)C)[C@H]6[C@@H](OC(C)=O)C[C@@]78C)C5(C)C)OC[C@@H](OS(=O)(=O)[O-])[C@@H]4O)O[C@@H]3C)OC[C@H]2O)O[C@H](CO)[C@H]1O.[Na+] (stereo partly drawn) 20
